meta.source: PubChem BioAssay (NCI)

- Tested on: OVCAR-5 ovarian
- ASSAY_COMMENT: NCI-60 one-dose screen, 48 h
- TEST_CONTEXT: 10 µM unless noted
This is part of a sample that, as a whole, favours compounds with a hit. Of some 83,000 tested, about 20% had one in any assay. The source made the active and inactive calls. How the source made its calls: active means growth percent below 10; inactive means the rest.
Respond using exactly one of the listed classes: True = active, False = inactive

INSERT INTO results (molecule, label) VALUES
  ('Nc1c(C(=O)c2ccccc2)sc2nc(-c3cnccn3)cc(-c3cccs3)c12', 'False'),
  ('CCN1C(=O)N(CC)C2SC(N/N=C/c3ccccc3)=NC21 (centres undefined)', 'False'),
  ('O=C(Cn1cc(CN2C(=O)c3ccc([N+](=O)[O-])cc3C2=O)nn1)Nc1ccccc1Br', 'False'),
  ('Cc1ccc(-c2cc(-c3ccc(N(C)C)cc3)n3c(n2)nc2ccccc23)cc1', 'False'),
  ('Nc1nc(-c2cccc([N+](=O)[O-])c2)c(N=Nc2ccccc2Cl)s1', 'False');

Identify the outcome logged in this assay for the molecule shown: "COc1cc2c3c(n(CCCN4CCCC4)c(=O)c2cc1OC)-c1cc2c(cc1C3=O)OCO2"
True

Field: outcome | Entry: "CCNC(=O)Oc1ccc(/C(=C(/C)c2ccccc2)c2ccc(OCCN3CCCC3)cc2)cc1"
False

Test call for this molecule, please: "C#C[C@]1(O)CC[C@H]2[C@@H]3CC=C4c5sc(Nc6cccc(C)n6)nc5CC[C@]4(C)[C@H]3CC[C@@]21C"
False

Hello, I am checking results. What call was entered for "O=S(=O)(Nc1ccc2c(c1)OC(F)(F)O2)c1ccc(-c2cnc(C3CC3)o2)cc1" ?
False

Which outcome was entered for the molecule "COc1cnc2c(c1)C(=O)c1c-2n(CCCn2ccnc2)c(=O)c2cc(OC)c(OC)cc12" in this test?
True

---

- System: HS 578T breast
- ASSAY_COMMENT: NCI-60 one-dose screen, 48 h (100 = growth as untreated, 0 = no growth, -100 = all killed)
- TEST_CONTEXT: 10 µM unless noted
The panel holds about 83,000 compounds, 20% with a hit somewhere; the sample as a whole holds those more often.
VALUE_TYPE: growth (%)
Numbers only, in %.

Before answering, review these 5 worked examples.
INSERT INTO measurements (compound, value_type, result) VALUES
  ('O=C1Nc2cc(OC(F)(F)F)ccc2Oc2ccc(-c3ccnc(N4CC[C@H](O)C4)c3)cc21', 'growth', 24.5),
  ('CCN1C(=O)N(CC)C2C1NN=C1SC(c3ccccc3)=CC(=O)N12 (centres undefined)', 'growth', 3.22),
  ('COc1ccc([C@@H]2[C@@H](O)C(=O)N2c2cc(OC)c(OC)c(OC)c2)cc1Cl', 'growth', 8.59),
  ('Cc1nn(-c2ccccc2)cc1/C=N/Nc1nc(Nc2ccccc2)nc(Nc2ccc(S(N)(=O)=O)cc2)n1', 'growth', 13.8),
  ('Cn1cc(-c2nn3cc(-c4cccnc4)nc3s2)c2ccccc21', 'growth', 31.3);

Each compound below has a recorded value; state its growth.
1. C/C(=C(/c1ccc(O)cc1)c1ccc(OCCN2CCCCCC2)cc1)c1ccccc1
2. CCN(CC)CCN1C(=O)c2c(c3c4cc(Br)ccc4[nH]c3c3ccc4ccccc4c23)C1=O
3. CN(C)c1ccc(/C=N/Nc2nc(N/N=C/c3ccc(N(C)C)cc3)nc(N3CCOCC3)n2)cc1
4. COc1cc2c3c(n(CCCNC4CCCCC4)c(=O)c2cc1OC)-c1cc2c(cc1C3=O)OCO2
5. CN1C(=O)N(C)C2C1NN=c1s/c(=C\c3ccccn3)c(=O)n12 (centres undefined)
6. C=CCn1c(SCC(=O)Nc2cccc(C(=O)/C=C/c3ccccc3Cl)c2)nc2ccccc2c1=O

1. 44.3
2. -4.17
3. 97.6
4. 90.5
5. 104
6. 89.6

---

- System: OVCAR-3 ovarian
- ASSAY_COMMENT: NCI-60 one-dose screen, 48 h
- TEST_CONTEXT: 10 µM unless noted
The panel holds about 83,000 compounds, 20% with a hit somewhere; the sample as a whole holds those more often. Calls of active or inactive are those of the source. How the source made its calls: active means growth percent below 10; inactive means the rest.
Parameter call: string, one of Y (active), N (inactive)

Example results:
INSERT INTO assay_data (molecule, subject_of_test, label) VALUES
  ('COc1ccc(/C=C/C(=O)c2nnn(-c3ccc(Br)cc3)c2C)cc1OC', 'OVCAR-3 ovarian', 'N'),
  ('O=S(=O)(Nc1cc(Cl)c(F)c(Cl)c1)c1ccc(-c2cnc(C3CC3)o2)cc1', 'OVCAR-3 ovarian', 'N');

Kindly provide the recorded test outcome for the following molecule: "CC(=O)Nc1ccc(NC(=O)Nc2cccc(-c3nc(-c4ccc(NC(=O)c5cccnc5)cc4Cl)no3)c2)cc1C(F)(F)F"
Y

Please share the test call associated with "Cc1cc(F)cc(NS(=O)(=O)c2ccc(-c3cnc(C4CC4)o3)cc2)c1" .
Y

Short answer needed: outcome of this test for "CCOC(=O)c1c(NCC(=O)Nc2cccc([N+](=O)[O-])c2)sc2c1CCCC2" ?
Y

Field: outcome | Entry: "CN1CCN(c2ccc3c(c2)nc(NNC(=O)c2ccncn2)c2cccn23)CC1"
N

Fill in: this test's call for "C=C1C(=O)O[C@@H]2C[C@@H](C)CCC(=O)[C@](C)(OC(C)=O)C[C@H](OC(=O)/C(C)=C\C)[C@@H]12" is ___
N

Please state the recorded outcome for this molecule: CC(=O)c1ccc(NC(=O)COc2ccc(C3SCC(=O)N3c3ccc(Br)cc3)cc2)cc1 (centres undefined)
N

Per the records of this test, what outcome belongs to "CCOC(=O)c1c(NC(=O)c2ccc(C(C)(C)C)cc2)sc2cc(OCCN3CCCCC3)ccc12" ?
N

---

- Tested on: OVCAR-3 ovarian
- ASSAY_COMMENT: NCI-60 one-dose screen, 48 h (100 = growth as untreated, 0 = no growth, -100 = all killed)
- TEST_CONTEXT: 10 µM unless noted
Compounds without any hit were thinned out: in the full panel of roughly 83,000, 20% have a hit.
Field: growth. Provide a value for each of the compounds that follow.
One number for each entry, in %.

INSERT INTO results (compound, result) VALUES
  ('C#CCOc1ccc(C(Nc2cc(Cl)ccc2Cl)c2nnnn2C2CCCCC2)cc1 (stereo unspecified)', 95.6),
  ('CN(C)C(=O)C1=NC(CO)C(=O)N(c2ccc(Cl)cc2)N1 (stereo unspecified)', 110),
  ('COc1cc(/C=C/C(=O)c2ccc(NC(=O)CSc3nnc(-c4ccc5nc(-c6ccccc6)[nH]c5c4)o3)cc2)cc(OC)c1OC', 72.1);

I have 2 compounds here; please give me growth for each one.
1. CCN1C(=O)N(CC)C2SC(N/N=C/c3ccc(OC)cc3)=NC21 (stereo unspecified)
2. CC(C)(C)OC(=O)N1CCN(S(=O)(=O)/N=C2\NC(=O)NC2=C(Cl)Cl)CC1

-13.1
104

Could you report growth for every entry in the following list?
1. O=C(c1cccc(F)c1)n1ccc2cc(NC(=S)Nc3cccnc3)ccc21
2. CC(C)N=C(N/C(N)=N/c1nc2ccccc2s1)NC(C)C
3. N/C(=N\OC(=O)CSc1nc2ccccc2s1)c1ccc(Cl)cc1
4. CCCC(=O)NC(c1cccnc1)c1cc(C(C)=O)c2cccnc2c1O (stereo unspecified)
5. Cc1nn(-c2ccccc2)c2nc(CCl)[nH]c(=O)c12

1. 107
2. 104
3. 111
4. 17.1
5. 90.9

---

For each of the compounds below, state its growth.
- System: UACC-257 melanoma
- ASSAY_COMMENT: NCI-60 one-dose screen, 48 h (100 = growth as untreated, 0 = no growth, -100 = all killed)
- TEST_CONTEXT: 10 µM
About 83,000 compounds went through this panel and 20% of them were active in at least one assay; those are over-represented in the sample as a whole.
Give bare numbers, in %.

INSERT INTO results (mol_smiles, value_type, unit_label, result) VALUES
  ('CSc1ccc(/C(=N/N=C(N)N)c2ccccc2)cc1', 'growth', '%', 80.7),
  ('Cn1c2ccc(Br)cc2c2c3c(c4c5cc(F)ccc5oc4c21)C(=O)N(O)C3=O', 'growth', '%', 104),
  ('C#C[C@]1(O)CC[C@H]2[C@@H]3CC=C4c5sc(Nc6cc(Cl)ccn6)nc5CC[C@]4(C)[C@H]3CC[C@@]21C', 'growth', '%', -35.3),
  ('CS(=O)(=O)c1nccc(-c2c(-c3ccc(F)c(OCc4ccccc4)c3)nc3sccn23)n1', 'growth', '%', 17.8);

Your task in this section: give growth for each listed record.
1. O=C1c2c(O)cc(O)cc2O[C@@H](c2ccc(O)cc2)[C@@H]1c1c(O)cc(O)c2c(=O)cc(-c3ccc(O)c(O)c3)oc12
2. C=CCn1c(SCC(=O)Nc2cccc(C(=O)/C=C/c3ccccc3)c2)nc2ccccc2c1=O
3. CN(C)C(=O)c1ccccc1-n1cnc2ccccc2c1=O
4. O=C1CSC(=O)N1Cc1cc2ccccc2nc1Cl

108
118
98.5
103

Item "O=C(O)c1ccc(-n2cc(CNc3ccc(F)cc3)c(-c3ccc(C(F)(F)F)cc3)n2)cc1" has what recorded growth?
90.9
